Test: Biodistribution in PC-3 tumor-bearing NSG mice (Example 2)
Format: in vivo
Conditions: male, NSG (NOD.Cg-Prkdc^scid Il2rg^tm1Wjl/SzJ), mouse, tumor/muscle, iv, total radioactivity, 120 MIN p.i.; read-out: TUMOR-TO-MUSCLE ratio, Mean
QUANTITY_NAME: tissue to tissue ratio at 2 h
Write the value as a bare number.

**Query** Answer with reported tissue to tissue ratio at 2 h of CC(C)C[C@@H](CN1CCC[C@H]1C(N)=O)NC(=O)[C@H](Cc1c[nH]cn1)NC(=O)CNC(=O)[C@@H](NC(=O)[C@H](C)NC(=O)[C@H](Cc1c[nH]c2ccccc12)NC(=O)[C@H](CCC(N)=O)NC(=O)[C@@H](Cc1ccccc1)NC(=O)CN1CCC(NC(=O)CN2CCN(CC(=O)O)CCN(CC(=O)O)CCN(CC(=O)O)CC2)CC1)C(C)C [^68Ga-ProBOMB2, metal not drawn]
**Result** 411
